The reported numbers originate from PubChem BioAssay.

Assignment: determine reported z-score for the given compounds.
Test: fission yeast growth modulation, primary screen, strain 972, OD600, 24 h, no modulator (AID 1090);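 further: basal condition with compound alone and no growth modifier present; test concentration not given here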
Details: S. pombe 972 growth, higher = more signal, called active from +8 up or from −8 down
One number for each entry.

Below are worked cases with known answers.
Recorded result, "COCCCNC(=O)[C@]1(CCC(=O)OC(C)(C)C)N=C(c2ccc(OCCCO)cc2)O[C@@H]1c1ccccc1" , z-score: 1.06

Recorded result, "C=CC[C@H](OC(=O)Nc1ccc(OC)cc1)c1ccc(O)c2ccccc12" , z-score: -19.5

Recorded result, "NC(=O)NCC#Cc1ccc2c(c1)[C@]1(C(=O)N2)[C@H](c2ccc(O)cc2)N2[C@H](c3ccccc3)[C@H](c3ccccc3)OC(=O)[C@H]2[C@@H]1C(=O)Nc1nc2ccccc2s1" , z-score: 4.35

Parameters: items (list). Returns: z-score for each item.
1. COCCOC(=O)N1C(=O)[C@@]2(c3ccccc31)[C@H](C(=O)N1CCN(c3ncccn3)CC1)[C@H]1C(=O)O[C@H](c3ccccc3)[C@H](c3ccccc3)N1[C@@H]2c1ccc(OCCO)cc1
2. COC(=O)C(CC#Cc1ccc2c(c1)[C@]1(C(=O)N2)[C@H](C(=O)O)[C@H]2C(=O)O[C@H](c3ccccc3)[C@H](c3ccccc3)N2[C@@H]1c1ccccc1OCCO)C(=O)OC
3. COCC(=C=CC[C@H](O)c1ccc(OCCO)cc1)C[C@H](O)COCc1ccccc1
4. CCOC(=O)C1=CC[C@@H](c2ccccc2C(F)(F)F)N(S(=O)(=O)c2ccc(C)cc2)C1

[1.1, 0.324, -1.44, -0.598]
